Test system: Influenza A virus (A/Puerto Rico/8/1934(H1N1))
Assay: Inhibition of Influenza A virus A/Puerto Rico/8/1934(H1N1) neuraminidase at 40 ug/ml using MUNANA as substrate measured after 60 mins by fluorescence assay relative to control
Details: dose 40.0 µg/ml
Listing of entries alongside the reported inhibition.
measured quantity: inhibition (%)

> print(dat)
                                   compound                              study.system  data.value
1  CC(C)(C)c1nc(/N=C2\NC(=O)CS2)sc1-n1cncn1  Influenza A virus (A/Puerto Rico/8/1934(H1N1))        18.8
2  CC(C)(C)c1nc(/N=C2\NC(=O)/C(=C/c3ccccc3C(=O)O)S2)sc1[N+](=O)[O-]  Influenza A virus (A/Puerto Rico/8/1934(H1N1))        79.3
3  COc1cc(/C=C2\S/C(=N/c3nc(C(C)(C)C)c([N+](=O)[O-])s3)NC2=O)ccc1O  Influenza A virus (A/Puerto Rico/8/1934(H1N1))        77.1
4  CCOC(=O)c1sc(/N=C2\NC(=O)/C(=C/c3cccc(O)c3)S2)nc1C  Influenza A virus (A/Puerto Rico/8/1934(H1N1))        79.5
5  COc1cccc(/C=C2\S/C(=N/c3nc(C(C)(C)C)c([N+](=O)[O-])s3)NC2=O)c1  Influenza A virus (A/Puerto Rico/8/1934(H1N1))        70.9
6  CCCCC1S/C(=N/c2nc(C)c(C(=O)OCC)s2)NC1=O (configuration not stated)  Influenza A virus (A/Puerto Rico/8/1934(H1N1))        52.1
7  CCOC(=O)c1sc(/N=C2\NC(=O)/C(=C/c3cccc(F)c3)S2)nc1C  Influenza A virus (A/Puerto Rico/8/1934(H1N1))        54.5

###

Test: Inhibition of Influenza A virus A/Puerto Rico/8/1934(H1N1) neuraminidase using MUNANA as substrate measured after 60 mins by fluorescence assay
// class assignment uses IC50 with these ranges: 0 (below 30 µM), 1 (30 µM to below 50 µM), 2 (50 µM or more)

> print(dat)
                                   structure  class.name
 1  CCOC(=O)c1sc(/N=C2\NC(=O)/C(=C/c3cccc(O)c3)S2)nc1C           1
 2  CCOC(=O)Cc1csc(/N=C2\NC(=O)/C(=C/c3ccc(O)c(OC)c3)S2)n1           0
 3  CCOC(=O)Cc1csc(/N=C2\NC(=O)/C(=C/c3cccc(N)c3)S2)n1           1
 4  CCOC(=O)c1sc(/N=C2\NC(=O)/C(=C/c3cccc(OC)c3O)S2)nc1C           0
 5  CC(C)(C)c1nc(/N=C2\NC(=O)/C(=C/c3cccc(F)c3)S2)sc1[N+](=O)[O-]           1
 6        CC(C)(C)c1nc(/N=C2\NC(=O)CS2)sc1Br           2
 7         CCOC(=O)c1sc(/N=C2\NC(=O)CS2)nc1C           2
 8  CCOC(=O)c1sc(/N=C2\NC(=O)/C(=C/c3cc([N+](=O)[O-])cc([N+](=O)[O-])c3O)S2)nc1C           1
 9  CCOC(=O)c1sc(/N=C2\NC(=O)/C(=C/c3ccc(O)cc3O)S2)nc1C           0
10      COC(=O)c1sc(/N=C2\NC(=O)CS2)nc1C(C)C           1
11  COc1cccc(/C=C2\S/C(=N/c3nc(C(C)(C)C)c([N+](=O)[O-])s3)NC2=O)c1           1
12  CCOC(=O)c1sc(/N=C2\NC(=O)/C(=C/c3ccc(C(=O)O)cc3)S2)nc1C           1
13  CCOC(=O)c1sc(/N=C2\NC(=O)/C(=C/c3cccc(Cl)c3)S2)nc1C           2
14  CCOC(=O)Cc1csc(/N=C2\NC(=O)/C(=C/c3cccc([N+](=O)[O-])c3)S2)n1           1
